Measured pIC50 accompanies every entry in the list below.
# MEASURED_TARGET: High affinity cGMP-specific 3',5'-cyclic phosphodiesterase 9A (Homo sapiens, UniProt O76083)
# Sequence (O76083 whole entry): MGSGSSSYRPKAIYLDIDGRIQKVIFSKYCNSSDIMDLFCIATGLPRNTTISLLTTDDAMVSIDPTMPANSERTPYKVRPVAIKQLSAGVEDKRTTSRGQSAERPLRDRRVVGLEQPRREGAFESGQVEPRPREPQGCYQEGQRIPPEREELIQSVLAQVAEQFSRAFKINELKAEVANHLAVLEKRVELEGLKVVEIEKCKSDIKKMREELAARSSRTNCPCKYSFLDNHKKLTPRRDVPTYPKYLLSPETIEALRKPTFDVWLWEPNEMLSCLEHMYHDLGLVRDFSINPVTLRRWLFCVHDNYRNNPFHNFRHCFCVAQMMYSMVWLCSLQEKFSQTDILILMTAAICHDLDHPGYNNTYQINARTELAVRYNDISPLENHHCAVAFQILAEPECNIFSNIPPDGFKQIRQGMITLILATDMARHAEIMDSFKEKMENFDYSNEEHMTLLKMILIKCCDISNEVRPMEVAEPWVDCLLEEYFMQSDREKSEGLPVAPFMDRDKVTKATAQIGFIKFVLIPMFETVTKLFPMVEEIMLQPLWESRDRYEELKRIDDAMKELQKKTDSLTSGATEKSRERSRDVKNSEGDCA
# METHOD_NOTES: Inhibition of human recombinant PDE9A2 expressed insect sf9 cells by radiometric assay
pIC50: −log10 of the molar value.

>>> observed_measurement("CN(C)C(=O)c1cccc(S(=O)(=O)N2CCC[C@H]2C(=O)O[C@@H](Cc2c(Cl)c[n+]([O-])cc2Cl)c2ccc(OC(F)F)c(OCC3CC3)c2)c1 (relative stereo)")
"< 4.52"

// switching to the query compound
[in] Output pIC50 of CN(C)C(=O)c1cccc(S(=O)(=O)N2CCS[C@H]2C(=O)O[C@@H](Cc2c(Cl)c[n+]([O-])cc2Cl)c2ccc(OC(F)F)c(OCC3CC3)c2)c1
[out] < 4.52

---

# METHOD_NOTES: Half life in Sprague-Dawley rat lung at 1 umol/kg, it administered as micronized powder measured up to 24 hrs post dose by electrospray LC-MS analysis
# Assay type: ADME, tissue-based
# MEASUREMENT_PARAMETERS: inhaled or intranasal
MEASUREMENT_KIND: half-life (min)

>>> observed_measurement("CN(C)C(=O)c1cccc(S(=O)(=O)N2CCS[C@H]2C(=O)O[C@@H](Cc2c(Cl)c[n+]([O-])cc2Cl)c2ccc(OC(F)F)c(OCC3CC3)c2)c1")
263
>>> observed_measurement("CN(C)C(=O)c1cccc(S(=O)(=O)N2CCC[C@H]2C(=O)O[C@@H](Cc2c(Cl)c[n+]([O-])cc2Cl)c2ccc(OC(F)F)c(OCC3CC3)c2)c1 (relative stereo)")
311

---

# METHOD_NOTES: Intrinsic clearance in human hepatocytes assessed per million cells at 1 uM measured after 90 mins by LC-MS/MS analysis
# Type: ADME, cell-based, Hepatocyte
# MEASUREMENT_PARAMETERS: read-out: CLH
MEASUREMENT_KIND: hepatocyte CLint at 1 µM (µL/min/1e6 cells)

[1] COc1ccc(S(=O)(=O)N2CCC[C@H]2C(=O)O[C@@H](Cc2c(Cl)c[n+]([O-])cc2Cl)c2ccc(OC(F)F)c(OCC3CC3)c2)cc1C(=O)N(C)C (relative stereo)
[2] CN(C)C(=O)c1cccc(S(=O)(=O)N2CCC[C@H]2C(=O)O[C@@H](Cc2c(Cl)c[n+]([O-])cc2Cl)c2ccc(OC(F)F)c(OCC3CC3)c2)c1 (relative stereo)
[3] COc1ccc(S(=O)(=O)N2CCCC[C@H]2C(=O)O[C@@H](Cc2c(Cl)c[n+]([O-])cc2Cl)c2ccc(OC(F)F)c(OCC3CC3)c2)cc1C(=O)N(C)C (relative stereo)
[in] Rank the molecules listed above in increasing order of hepatocyte CLint at 1 µM. Answer with the labels in sequence, matching the requested order.
[out] 3, 1, 2

---

# MEASURED_TARGET: 3',5'-cyclic-AMP phosphodiesterase 4B (Homo sapiens)
# Sequence (Q07343 whole entry): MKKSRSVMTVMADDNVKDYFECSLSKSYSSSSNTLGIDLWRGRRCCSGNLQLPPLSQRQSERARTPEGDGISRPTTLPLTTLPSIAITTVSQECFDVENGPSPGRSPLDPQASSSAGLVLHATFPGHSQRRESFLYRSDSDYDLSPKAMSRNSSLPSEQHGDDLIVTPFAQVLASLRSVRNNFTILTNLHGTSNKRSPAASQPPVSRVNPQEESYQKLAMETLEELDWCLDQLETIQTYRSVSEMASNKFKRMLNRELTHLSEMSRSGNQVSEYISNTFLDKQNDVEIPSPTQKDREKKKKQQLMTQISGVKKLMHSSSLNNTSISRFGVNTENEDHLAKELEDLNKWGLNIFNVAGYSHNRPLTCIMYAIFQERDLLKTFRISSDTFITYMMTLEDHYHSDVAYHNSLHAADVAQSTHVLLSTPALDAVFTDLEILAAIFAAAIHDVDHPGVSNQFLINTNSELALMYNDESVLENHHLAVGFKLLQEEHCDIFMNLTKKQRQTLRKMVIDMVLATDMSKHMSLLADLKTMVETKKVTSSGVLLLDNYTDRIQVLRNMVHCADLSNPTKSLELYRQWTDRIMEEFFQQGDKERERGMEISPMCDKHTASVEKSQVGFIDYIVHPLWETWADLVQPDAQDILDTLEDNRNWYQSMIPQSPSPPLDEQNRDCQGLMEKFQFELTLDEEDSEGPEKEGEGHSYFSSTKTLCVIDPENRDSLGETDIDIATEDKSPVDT
# METHOD_NOTES: Inhibition of human recombinant PDE4B expressed insect sf9 cells by radiometric assay
MEASUREMENT_KIND: IC50 (nM)

[I] CN(C)C(=O)c1cccc(S(=O)(=O)N2CCC[C@H]2C(=O)O[C@@H](Cc2c(Cl)c[n+]([O-])cc2Cl)c2ccc(OC(F)F)c(OCC3CC3)c2)c1 (relative stereo)
[II] CN(C)C(=O)c1cccc(S(=O)(=O)N2CCS[C@H]2C(=O)O[C@@H](Cc2c(Cl)c[n+]([O-])cc2Cl)c2ccc(OC(F)F)c(OCC3CC3)c2)c1
[in] Compare the recorded IC50 of I and II ; state which is larger. Indicate which entry you chose by stating its label.
[out] I
(I: 0.0881 nM, II: 0.0278 nM)

---

# METHOD_NOTES: Intrinsic clearance in human liver microsomes at 1 uM measured after 60 mins in presence NADPH by LC-MS/MS analysis
# Format: ADME, microsome
# MEASUREMENT_PARAMETERS: read-out: CLH
MEASUREMENT_KIND: microsomal CLint at 1 µM (µL/min/mg)

>>> observed_measurement("CNC(=O)c1cc(S(=O)(=O)N2CCS[C@H]2C(=O)O[C@@H](Cc2c(Cl)c[n+]([O-])cc2Cl)c2ccc(OC(F)F)c(OCC3CC3)c2)cn1C (relative stereo)")
202
>>> observed_measurement("CN(C)C(=O)c1cccc(S(=O)(=O)N2CCS[C@H]2C(=O)O[C@@H](Cc2c(Cl)c[n+]([O-])cc2Cl)c2ccc(OC(F)F)c(OCC3CC3)c2)c1")
287
>>> observed_measurement("COc1ccc(S(=O)(=O)N2CCS[C@H]2C(=O)O[C@@H](Cc2c(Cl)c[n+]([O-])cc2Cl)c2ccc(OC(F)F)c(OCC3CC3)c2)cc1OC (relative stereo)")
200
>>> observed_measurement("CN(C)C(=O)c1cccc(S(=O)(=O)N2CCCC[C@H]2C(=O)O[C@@H](Cc2c(Cl)c[n+]([O-])cc2Cl)c2ccc(OC(F)F)c(OCC3CC3)c2)c1 (relative stereo)")
363
>>> observed_measurement("COc1ccc(S(=O)(=O)N2CCCC[C@H]2C(=O)O[C@@H](Cc2c(Cl)c[n+]([O-])cc2Cl)c2ccc(OC(F)F)c(OCC3CC3)c2)cc1C(=O)N(C)C (relative stereo)")
244
>>> observed_measurement("CN(C)C(=O)c1cccc(S(=O)(=O)N2CSC[C@H]2C(=O)O[C@@H](Cc2c(Cl)c[n+]([O-])cc2Cl)c2ccc(OC(F)F)c(OCC3CC3)c2)c1")
268

---

# MEASURED_TARGET: cAMP and cAMP-inhibited cGMP 3',5'-cyclic phosphodiesterase 10A (Homo sapiens)
# Sequence (Q9Y233 whole entry): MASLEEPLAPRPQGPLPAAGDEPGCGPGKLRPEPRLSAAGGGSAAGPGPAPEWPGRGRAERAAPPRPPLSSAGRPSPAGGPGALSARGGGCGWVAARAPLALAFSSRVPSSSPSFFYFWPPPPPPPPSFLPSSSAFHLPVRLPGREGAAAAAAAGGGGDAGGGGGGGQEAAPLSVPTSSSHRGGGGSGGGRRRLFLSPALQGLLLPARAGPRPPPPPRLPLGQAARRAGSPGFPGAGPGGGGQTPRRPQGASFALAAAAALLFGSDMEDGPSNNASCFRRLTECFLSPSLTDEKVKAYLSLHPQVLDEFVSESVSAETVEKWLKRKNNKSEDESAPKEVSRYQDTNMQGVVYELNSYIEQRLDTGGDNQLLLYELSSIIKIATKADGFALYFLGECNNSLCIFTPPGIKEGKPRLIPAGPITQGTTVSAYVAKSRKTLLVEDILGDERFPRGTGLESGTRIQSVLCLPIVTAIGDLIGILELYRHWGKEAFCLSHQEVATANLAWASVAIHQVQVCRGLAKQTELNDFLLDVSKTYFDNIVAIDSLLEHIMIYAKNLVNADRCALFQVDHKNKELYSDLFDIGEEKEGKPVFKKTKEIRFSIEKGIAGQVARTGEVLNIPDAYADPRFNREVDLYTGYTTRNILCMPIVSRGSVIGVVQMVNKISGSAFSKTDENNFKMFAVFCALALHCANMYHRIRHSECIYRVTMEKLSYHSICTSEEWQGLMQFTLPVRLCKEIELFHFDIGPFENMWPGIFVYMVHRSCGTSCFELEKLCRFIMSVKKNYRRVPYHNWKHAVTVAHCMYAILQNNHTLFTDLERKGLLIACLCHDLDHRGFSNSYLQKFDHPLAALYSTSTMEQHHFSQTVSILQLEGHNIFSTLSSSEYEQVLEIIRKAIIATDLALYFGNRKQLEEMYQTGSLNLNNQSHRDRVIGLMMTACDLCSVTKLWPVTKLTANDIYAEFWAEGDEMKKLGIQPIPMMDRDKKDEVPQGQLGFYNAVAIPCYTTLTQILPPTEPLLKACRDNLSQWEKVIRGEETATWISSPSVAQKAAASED
# METHOD_NOTES: Inhibition of human recombinant PDE10A2 expressed insect sf9 cells by radiometric assay
pIC50: −log10 of the molar value.
MEASUREMENT_KIND: pIC50

[a] CN(C)C(=O)c1cccc(S(=O)(=O)N2CCC[C@H]2C(=O)O[C@@H](Cc2c(Cl)c[n+]([O-])cc2Cl)c2ccc(OC(F)F)c(OCC3CC3)c2)c1 (relative stereo)
[b] CN(C)C(=O)c1cccc(S(=O)(=O)N2CCS[C@H]2C(=O)O[C@@H](Cc2c(Cl)c[n+]([O-])cc2Cl)c2ccc(OC(F)F)c(OCC3CC3)c2)c1
[in] Compare the recorded pIC50 of a and b ; state which is larger. Indicate which entry you chose by stating its label.
[out] b

---

# METHOD_NOTES: Intrinsic clearance in human liver microsomes at 1 uM measured after 60 mins in presence NADPH by LC-MS/MS analysis
# Assay type: ADME, microsome
# MEASUREMENT_PARAMETERS: read-out: CLH
MEASUREMENT_KIND: microsomal CLint at 1 µM (µL/min/mg)

>>> observed_measurement("Cn1cnc(S(=O)(=O)N2CCS[C@H]2C(=O)O[C@@H](Cc2c(Cl)c[n+]([O-])cc2Cl)c2ccc(OC(F)F)c(OCC3CC3)c2)c1")
281
>>> observed_measurement("COc1ccc(S(=O)(=O)N2CCC[C@H]2C(=O)O[C@@H](Cc2c(Cl)c[n+]([O-])cc2Cl)c2ccc(OC(F)F)c(OCC3CC3)c2)cc1C(=O)N(C)C (relative stereo)")
365

[a] CN(C)C(=O)c1cccc(S(=O)(=O)N2CCC[C@H]2C(=O)O[C@@H](Cc2c(Cl)c[n+]([O-])cc2Cl)c2ccc(OC(F)F)c(OCC3CC3)c2)c1 (relative stereo)
[b] COc1ccc(S(=O)(=O)N2CCS[C@H]2C(=O)O[C@@H](Cc2c(Cl)c[n+]([O-])cc2Cl)c2ccc(OC(F)F)c(OCC3CC3)c2)cc1C(=O)N(C)C (relative stereo)
[in] Please indicate which entry, a or b , has the lower recorded microsomal CLint at 1 µM value. Indicate which entry you chose by stating its label.
[out] b
(b: 360 µL/min/mg, a: 591 µL/min/mg)

---

# METHOD_NOTES: Inhibition of PDE4 in human PBMC assessed as reduction in LPS-induced TNFalpha release after 18 hrs by quantitative ELISA
pIC50: −log10 of the molar value.
MEASUREMENT_KIND: pIC50

[1] CN(C)C(=O)c1cccc(S(=O)(=O)N2CSC[C@H]2C(=O)O[C@@H](Cc2c(Cl)c[n+]([O-])cc2Cl)c2ccc(OC(F)F)c(OCC3CC3)c2)c1
[2] COc1ccc(S(=O)(=O)N2CCS[C@H]2C(=O)O[C@@H](Cc2c(Cl)c[n+]([O-])cc2Cl)c2ccc(OC(F)F)c(OCC3CC3)c2)cc1OC (relative stereo)
[3] COc1ccc(S(=O)(=O)N2CCCC[C@H]2C(=O)O[C@@H](Cc2c(Cl)c[n+]([O-])cc2Cl)c2ccc(OC(F)F)c(OCC3CC3)c2)cc1C(=O)N(C)C (relative stereo)
[in] Rank the compounds listed above in increasing order of pIC50. Answer with the labels in sequence, matching the requested order.
[out] 2, 1, 3
